- Tested on: SK-MEL-28
- measurementDescription: NCI tumour cell line growth inhibition, 48 h
Activity calls are given as the source filed them. No stated cut-off is given here; in the data, active = GI50 up to about 1.1 µM and inactive = higher.

compound: Cc1nc2ccc(Cl)cc2c2c1CCN2c1ccccc1
targetOfAssay: SK-MEL-28
GI50: 14 µM (inactive)
--
compound: COc1cc(-c2nnc3n2NC=C(C(=O)O)S3)cc(OC)c1OC
targetOfAssay: SK-MEL-28
GI50: > 100 µM (inactive)
--
compound: S=C(N/N=C\C(=N/NC(=S)N1CCCCC1)c1ccccc1)N1CCCCC1
targetOfAssay: SK-MEL-28
GI50: 1.9 µM (inactive)
--
compound: CNC1=CC(=O)C2=C(C1=O)[C@H]1CC[C@]3(C)C(=O)CC[C@H]3[C@@H]1CC2
targetOfAssay: SK-MEL-28
GI50: 18.2 µM (inactive)
--
compound: CC1(C)CC(=O)C(CC2C(=O)CCCC2=O)C(=O)C1
targetOfAssay: SK-MEL-28
GI50: > 100 µM (inactive)
--
compound: COc1ccc(/C=C2\CCCC(C(NO)c3ccc(OC)cc3)C2=NO)cc1 (stereo not given)
targetOfAssay: SK-MEL-28
GI50: 26.9 µM (inactive)
--
compound: Cc1cc(O)nc(NNC(C#N)c2ccccc2O)n1 (stereo not given)
targetOfAssay: SK-MEL-28
GI50: 36.3 µM (inactive)
--
compound: CN1C(=O)C2C=C3CCCCC3=CC2N(C)C1=O (stereo not given)
targetOfAssay: SK-MEL-28
GI50: > 100 µM (inactive)
--
compound: CN1CC(c2ccccc2)N(CCCCN2CC(c3ccccc3)N(C)CC2c2ccccc2)CC1c1ccccc1 (stereo not given)
targetOfAssay: SK-MEL-28
GI50: > 100 µM (inactive)
--
compound: C=CCN1C(=O)/C(=C/c2ccccc2)N=C1SC1OC(COC(C)=O)C(OC(C)=O)C(OC(C)=O)C1OC(C)=O (stereo not given)
targetOfAssay: SK-MEL-28
GI50: 26.1 µM (inactive)

====

- Tested on: SK-MEL-5
- measurementDescription: NCI tumour cell line growth inhibition, 48 h
Activity calls are given as the source filed them. Rule as the data show it: active = GI50 up to about 1.1 µM and inactive = higher.
Classes used: active, inactive

molecule: CC/C(CC(=O)CCC(=O)Nc1ccc(C)c(C)c1)=N\NC(=O)C(N)=O
targetOfAssay: SK-MEL-5
classAssignment: inactive
//
molecule: CC(C(=O)O)C1Nc2ccccc2NC1=O (centres undefined)
targetOfAssay: SK-MEL-5
classAssignment: inactive
//
molecule: O=C1C(NCCN2CCOCC2)=C(Cl)C(=O)c2ncccc21
targetOfAssay: SK-MEL-5
classAssignment: active
//
molecule: COc1ccc(/C=C2\C[C@H]3[C@@H]4CCC5=C[C@@H](N6CCCC6)CC[C@]5(C)[C@H]4CC[C@]3(C)[C@H]2O)cc1
targetOfAssay: SK-MEL-5
classAssignment: inactive
//
molecule: Cc1ccccc1C1=C/C(=C(\SS/C(C(=O)c2ccc(OCC(=O)O)c(Cl)c2Cl)=C2\C=C(c3ccccc3C)SS2)C(=O)c2ccc(OCC(=O)O)c(Cl)c2Cl)SS1
targetOfAssay: SK-MEL-5
classAssignment: inactive
//
molecule: CN(C)c1ccc(/C=C(\NC(=O)c2ccccc2)C(=O)NC(CC(=O)O)C(=O)O)cc1 (centres undefined)
targetOfAssay: SK-MEL-5
classAssignment: inactive
//
molecule: COc1ccc(-c2c(-c3ccccc3)c(C)nc3nc(SC)nc(SC)c23)cc1OC
targetOfAssay: SK-MEL-5
classAssignment: inactive
//
molecule: CNS(=O)(=O)NNS(=O)(=O)c1ccc2ccccc2c1
targetOfAssay: SK-MEL-5
classAssignment: inactive
//
molecule: COc1ccc(/C=C2\CCCC(C(NO)c3ccc(OC)cc3)C2=NO)cc1 (centres undefined)
targetOfAssay: SK-MEL-5
classAssignment: inactive

====

- System: OVCAR-8
- measurementDescription: NCI tumour cell line growth inhibition, 48 h
Activity calls are given as the source filed them. Rule as the data show it: active = GI50 up to about 1.1 µM and inactive = higher.
Outcome codes: TRUE = active, FALSE = inactive

compound: O=C(Nc1nc2ccc([N+](=O)[O-])cc2[n+]([O-])n1)C(F)(F)F
targetOfAssay: OVCAR-8
classAssignment: FALSE
--
compound: COC(=O)/C=C(\C)CC/C=C(\C)CCC(O)C(C)(C)O (stereo not drawn)
targetOfAssay: OVCAR-8
classAssignment: FALSE
--
compound: COc1cc2c(c(OC)c1OC)-c1ccc(SC)c(=O)cc1C(CC(=O)Oc1cccc(F)c1)C2 (stereo not drawn)
targetOfAssay: OVCAR-8
classAssignment: TRUE
--
compound: CC(C)c1ccc(O)c(=O)c(O)c1.CC(C)c1ccc(O)c(=O)cc1.CC(C)c1cccc(=O)c(O)c1.CC(C)c1ccccc(=O)c1O
targetOfAssay: OVCAR-8
classAssignment: TRUE
--
compound: CC(C)CCC[C@@H](C)[C@H]1CC[C@H]2[C@@H]3CC[C@H]4C[C@@H](CCC=C(c5cc(Cl)c(O)c(C(=O)O)c5)c5cc(Cl)c(O)c(C(=O)O)c5)CC[C@]4(C)[C@H]3CC[C@]12C
targetOfAssay: OVCAR-8
classAssignment: FALSE
--
compound: COc1nc(N)c(C#N)c(C#N)c1C#N
targetOfAssay: OVCAR-8
classAssignment: FALSE
--
compound: COc1cccc(-c2cc(O)c3cc(N4CCOCC4)ccc3n2)c1
targetOfAssay: OVCAR-8
classAssignment: TRUE
--
compound: CS(=O)(=O)c1ccc(COP(N)(=O)N(CCCl)CCCl)cc1 (stereo not drawn)
targetOfAssay: OVCAR-8
classAssignment: FALSE

====

- Test system: Hs-578T
- measurementDescription: NCI tumour cell line growth inhibition, 48 h
The source made the active and inactive calls. No stated cut-off is given here; in the data, active = GI50 up to about 1.1 µM and inactive = higher.
Classes used: 1.0 (active), 0.0 (inactive)

compound: COc1cc(/C=C2\N=C(c3ccccc3)N(c3nc4ccccc4s3)C2=O)cc(OC)c1OC
targetOfAssay: Hs-578T
classAssignment: 0.0
--
compound: O=C1CCN(CCC(F)(F)C(F)(F)C(F)(F)C(F)(F)C(F)(F)C(F)(F)F)C(=S)N1CCC(F)(F)C(F)(F)C(F)(F)C(F)(F)C(F)(F)C(F)(F)F
targetOfAssay: Hs-578T
classAssignment: 0.0
--
compound: Cc1ccc(C2(O)CS/C(=N\C34CC5CC(CC(C5)C3)C4)N2C(P(=O)(O)O)P(=O)(O)O)cc1 (stereo not given)
targetOfAssay: Hs-578T
classAssignment: 0.0
--
compound: N=c1oc2ccc([N+](=O)[O-])cc2cc1C(=O)NCc1ccccc1
targetOfAssay: Hs-578T
classAssignment: 0.0
--
compound: C=CCOC1(CC=C)C(=O)OC2C(O)COC21O (stereo not given)
targetOfAssay: Hs-578T
classAssignment: 0.0
--
compound: COc1ccnc2c1C(=O)c1nc3ccccc3c3ccnc-2c13
targetOfAssay: Hs-578T
classAssignment: 0.0
--
compound: CCN1CCCn2c(=O)[nH]c3cc(Br)cc1c32
targetOfAssay: Hs-578T
classAssignment: 1.0
--
compound: O=C(N/N=C(COc1ccc(Cl)cc1)\N=C\c1cccnc1)c1ccncc1
targetOfAssay: Hs-578T
classAssignment: 0.0
--
compound: Cc1nn2c(=O)c([N+](=O)[O-])c(/C=C/c3ccco3)nc2s1
targetOfAssay: Hs-578T
classAssignment: 0.0
--
compound: Cc1ccc2ccccc2c1NC1=NCCO1
targetOfAssay: Hs-578T
classAssignment: 0.0

====

- Tested on: MDA-MB-435
- measurementDescription: NCI tumour cell line growth inhibition, 48 h
The source made the active and inactive calls. Rule as the data show it: active = GI50 up to about 1.1 µM and inactive = higher.

compound: CN(C)c1ccc(/C=C2\N=C(NNc3ccccc3)NC2=O)cc1
GI50: 21.5 µM (inactive)

compound: COC1O[C@@H]2CCN3C(=O)[C@@H](OC(=O)c4ccc([N+](=O)[O-])cc4)[C@H]1C23 (stereo not given in full)
GI50: > 100 µM (inactive)

compound: Oc1c(Cl)c(Cl)c(O)c(CCNc2nccs2)c1Cl
GI50: 16.1 µM (inactive)

compound: Cc1ccc(C2(O)CS/C(=N\C34CC5CC(CC(C5)C3)C4)N2C(P(=O)(O)O)P(=O)(O)O)cc1 (stereo not given)
GI50: > 100 µM (inactive)

compound: O=C1Nc2ccccc2/C1=C/c1ccccc1
GI50: 15.8 µM (inactive)

====

- Test system: HL-60
- measurementDescription: NCI tumour cell line growth inhibition, 48 h
The source made the active and inactive calls. No stated cut-off is given here; in the data, active = GI50 up to about 1.1 µM and inactive = higher.
Possible outcomes: true (1) (active), false (0) (inactive)

compound: Cc1ccc(C)c(NC(=O)CC2SC(Nc3ccccc3Cl)=NC2=O)c1 (stereo not given)
targetOfAssay: HL-60
classAssignment: false (0)
--
compound: CCOC(=O)CCC1(C(=O)OCC)CCCC1=O (stereo not given)
targetOfAssay: HL-60
classAssignment: false (0)
--
compound: COC1C(C)OC(OC2CC(C)(O)Cc3cc4c(c(O)c32)C(=O)c2c(O)cc3c(c2C4=O)OC2OC3(C)C(O)C(N(C)C)C2O)C(OC)C1(C)OC (stereo not given)
targetOfAssay: HL-60
classAssignment: true (1)
--
compound: C=CCN1C(=O)/C(=C/c2ccccc2)N=C1SC1OC(COC(C)=O)C(OC(C)=O)C(OC(C)=O)C1OC(C)=O (stereo not given)
targetOfAssay: HL-60
classAssignment: false (0)
--
compound: COC[C@@H](/N=C/N1CCc2cc(OC)c(OC)cc2C1)C(C)(C)C
targetOfAssay: HL-60
classAssignment: false (0)
--
compound: Fc1ccc2c3c([nH]c2c1)CCN(Cc1ccccc1)C3
targetOfAssay: HL-60
classAssignment: false (0)
--
compound: CCc1nc2ccccc2c(=O)n1/N=C(\N=N\c1ccc(Cl)cc1)c1ccccc1
targetOfAssay: HL-60
classAssignment: false (0)
--
compound: Cc1cc2nc3c(C#N)c(C)c(CCCl)c(Cl)n3c2cc1C
targetOfAssay: HL-60
classAssignment: false (0)
--
compound: O=C1CC(Cl)c2c(Cl)sc(Cl)c21 (stereo not given)
targetOfAssay: HL-60
classAssignment: false (0)
--
compound: CN1CC(c2ccccc2)N(CCCCN2CC(c3ccccc3)N(C)CC2c2ccccc2)CC1c1ccccc1 (stereo not given)
targetOfAssay: HL-60
classAssignment: false (0)
